All values here come from patent US20250368634A1.

- target or test system: SOS1-KRas (G12C) (Homo sapiens (Human), UniProt Q07889)
- Sequence (Q07889 564-1049, stated change not applied): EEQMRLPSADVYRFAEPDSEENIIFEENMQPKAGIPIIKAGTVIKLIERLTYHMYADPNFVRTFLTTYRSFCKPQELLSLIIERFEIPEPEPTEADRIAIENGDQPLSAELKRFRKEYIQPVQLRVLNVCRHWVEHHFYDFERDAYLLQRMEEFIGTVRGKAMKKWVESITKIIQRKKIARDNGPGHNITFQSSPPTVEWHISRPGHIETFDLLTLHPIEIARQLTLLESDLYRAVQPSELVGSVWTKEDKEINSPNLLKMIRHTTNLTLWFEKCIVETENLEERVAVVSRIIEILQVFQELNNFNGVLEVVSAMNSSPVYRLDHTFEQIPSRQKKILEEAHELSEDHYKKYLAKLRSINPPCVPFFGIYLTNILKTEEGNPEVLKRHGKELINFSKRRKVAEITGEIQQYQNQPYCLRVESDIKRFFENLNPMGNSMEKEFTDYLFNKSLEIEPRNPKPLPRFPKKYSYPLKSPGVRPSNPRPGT
- experiment notes: SOS1-KRas (G12C) FRET Assay
- Assay type: binding
- setup conditions: inhibition of SOS1:KRAS interaction; 0.5 nM His10-SOS1 (res. 564-1049), 2.5 nM GST-KRAS (res. 1-169, G12C); 2 hrs at RT
measurement kind: IC50 (nM)

Examples with answers:
Cc1c(C#N)cccc1[C@@H](C)NC(=O)c1cc(N2CCOCC2)c(F)cc1NC1CCN(C)CC1 [Example 46] : 74.6
C[C@@H](NC(=O)c1cc(N2CCC(F)(F)C2)c(F)cc1N[C@H]1CN2CCC1CC2)c1cccc(C(F)F)c1F [Example 27] : 22.5
C[C@@H](NC(=O)c1cc(N2CCC(F)(F)C2)c(F)cc1N[C@@H]1CN2CCC1CC2)c1cccc(C(F)F)c1F [Example 26] : 88.8

A: C[C@@H](NC(=O)c1cc(N2C[C@H]3C[C@@H]2CO3)c(F)cc1NC1CCN(C)CC1)c1cccc(C(F)F)c1F [Example 2]
B: C[C@@H](NC(=O)c1cc(N2CCOCC2)c(F)cc1NC(C)(C)CN(C)C)c1cccc(C(F)F)c1F [Example 52]
C: C[C@@H](NC(=O)c1cc(-c2ccncc2)c(F)cc1NC1CCN(C)CC1)c1cccc(C(F)F)c1F [Example 57]
D: C[C@@H](NC(=O)c1cc(N2CCOCC2)c(C#N)cc1NC1CCN(C)CC1)c1cccc(C(F)F)c1F [Example 4]
Rank descending by IC50. Put the labels in the order asked and list them.
A, B, D, C

* * *

- target or test system: SOS1-KRas (G12C) (Homo sapiens (Human))
- experiment notes: SOS1-KRas (G12C) FRET Assay
- Type: binding
- setup conditions: inhibition of SOS1:KRAS interaction; 0.5 nM His10-SOS1 (res. 564-1049), 2.5 nM GST-KRAS (res. 1-169, G12C); 2 hrs at RT
pIC50: −log10 of the molar value.
measurement kind: pIC50

Examples with answers:
C[C@@H](NC(=O)c1cc(C(=O)N2CCOCC2)c(F)cc1NC1CCN(C)CC1)c1cccc(C(F)F)c1F : 6.62
C[C@@H](NC(=O)c1cc(N2CCOCC2)c(Cl)cc1N[C@@H]1CN2CCC1CC2)c1cccc(C(F)F)c1F : 7.90
CC(=O)N1CCN(c2cc(C(=O)N[C@H](C)c3cccc(C(F)(F)F)c3C)c(NC3CCN(C)CC3)cc2F)CC1 : 7.69
C[C@@H](NC(=O)c1cc(C2CC2)c(F)cc1NC1CCN(C)CC1)c1cccc(C(F)F)c1F : 6.66
Cc1c([C@@H](C)NC(=O)c2cc(-c3cnoc3)c(F)cc2NC2CCN(C)CC2)cccc1C(F)(F)F : 6.88

P: CNC(=O)c1cc(C(=O)N[C@H](C)c2cccc(C(F)F)c2F)c(NC2CCN(C)CC2)cc1F
Q: C[C@H](CN(C)C)Nc1cc(F)c(N2CCOCC2)cc1C(=O)N[C@H](C)c1cccc(C(F)F)c1F (single isomer, unassigned)
// returns P or Q , whichever has the lower pIC50 Refer to your chosen entry by its label in the reply.
P

* * *

- target or test system: SOS1-KRas (G12C) (Homo sapiens (Human), UniProt Q07889)
- experiment notes: SOS1-KRas (G12C) FRET Assay
- Assay type: binding
- setup conditions: inhibition of SOS1:KRAS interaction; 0.5 nM His10-SOS1 (res. 564-1049), 2.5 nM GST-KRAS (res. 1-169, G12C); 2 hrs at RT
pIC50: −log10 of the molar value.
measurement kind: pIC50

C[C@@H](NC(=O)c1cc(C(=O)N(C)C)c(F)cc1NC1CCN(C)CC1)c1cccc(C(F)F)c1F : 6.61
C[C@@H](NC(=O)c1cc(C23CC(C2)C3)c(F)cc1N[C@H]1CN2CCC1CC2)c1cccc(C(F)F)c1F : 6.92
Cc1c([C@@H](C)NC(=O)c2cc(N3CCOCC3)ccc2NC2CCN(C)CC2)cccc1C(F)(F)F : 6.45

* * *

- target or test system: SOS1-KRas (G12C) (Homo sapiens (Human))
- experiment notes: SOS1-KRas (G12C) FRET Assay
- Format: binding
- setup conditions: inhibition of SOS1:KRAS interaction; 0.5 nM His10-SOS1 (res. 564-1049), 2.5 nM GST-KRAS (res. 1-169, G12C); 2 hrs at RT
measurement kind: IC50 (µM)

Examples with answers:
C[C@@H](NC(=O)c1cc(N2CCOCC2)c(C#N)cc1N[C@H]1CN2CCC1CC2)c1cccc(C(F)F)c1F : 0.0227
C[C@@H](CN(C)C)Nc1cc(F)c(N2CCOCC2)cc1C(=O)N[C@H](C)c1cccc(C(F)F)c1F (single isomer, unassigned) : 0.199
Cc1c([C@@H](C)NC(=O)c2cc(N3CCOCC3)c(Cl)cc2NC2CCN(C)CC2)cccc1C(F)(F)F : 0.0672
CC(=O)N1CC2(C1)CN(c1cc(C(=O)N[C@H](C)c3cccc(C(F)(F)F)c3C)c(NC3CCN(C)CC3)cc1F)C2 : 0.0264

a: C[C@@H](NC(=O)c1cc(N2CCOC(F)(F)C2)c(F)cc1NC1CCN(C)CC1)c1cccc(C(F)F)c1F
b: C[C@@H](NC(=O)c1cc(-c2ccncc2F)c(F)cc1NC1CCN(C)CC1)c1cccc(C(F)F)c1F
For this pair, a and b , which shows a numerically higher IC50? Refer to your chosen entry by its label in the reply.
a
(a: 0.0219 µM, b: 0.0149 µM)

1: Cc1cc(-c2cc(C(=O)N[C@H](C)c3cccc(C(F)F)c3F)c(NC3CCN(C)CC3)cc2F)ccn1
2: C[C@@H](NC(=O)c1cc(N2CC[C@@]3(CCOC3)C2)c(F)cc1NC1CCN(C)CC1)c1cccc(C(F)F)c1F (single isomer, unassigned)
3: C[C@@H](NC(=O)c1cc(N2CC(F)(F)C[C@@H]2C)c(F)cc1NC1CCN(C)CC1)c1cccc(C(F)F)c1F
# rank by IC50, ascending (min first) Put the labels in the order asked and list them.
1, 2, 3

P: C[C@@H](NC(=O)c1cc(-c2ccnnc2)c(F)cc1NC1CCN(C)CC1)c1cccc(C(F)F)c1F
Q: C[C@@H](NC(=O)c1cc(N2CCOCC2)c(F)cc1NCCN)c1cccc(C(F)F)c1F
// returns P or Q , whichever has the lower IC50 Refer to your chosen entry by its label in the reply.
P

A: COC(=O)c1cc(C(=O)N[C@H](C)c2cccc(C(F)F)c2F)c(NC2CCN(C)CC2)cc1F
B: Cc1c([C@@H](C)NC(=O)c2cc(N3CCOCC3)c(F)cc2NC2CCN(C)CC2)cccc1C(F)(F)F
C: Cc1c([C@@H](C)NC(=O)c2cc(-c3ccncc3)c(F)cc2NC2CCN(C)CC2)cccc1C(F)(F)F
D: CC(C)NC(=O)c1cc(C(=O)N[C@H](C)c2cccc(C(F)F)c2F)c(NC2CCN(C)CC2)cc1F
# rank by IC50, ascending (min first) Put the labels in the order asked and list them.
C, B, A, D

* * *

- target or test system: SOS1-KRas (G12C) (Homo sapiens (Human))
- experiment notes: SOS1-KRas (G12C) FRET Assay
- Format: binding
pIC50: −log10 of the molar value.
measurement kind: pIC50

C[C@@H](NC(=O)c1cc(N2CCOCC2)c(F)cc1N[C@@H]1CN2CCC1CC2)c1cccc(C(F)F)c1F : 7.38
C[C@@H](NC(=O)c1cc(N2C[C@@H]3C[C@H]2CO3)c(F)cc1NC1CCN(C)CC1)c1cccc(C(F)F)c1F : 7.00

a: C[C@@H](NC(=O)c1cc(N2CCOCC2)c(F)cc1NC1CCN(C)CC1)c1cccc(C(F)F)c1F
b: Cc1c([C@@H](C)NC(=O)c2cc(-c3cnn(C)c3)c(F)cc2NC2CCN(C)CC2)cccc1C(F)(F)F
For this pair, a and b , which shows a numerically higher pIC50? Refer to your chosen entry by its label in the reply.
a

* * *

- target or test system: SOS1-KRas (G12C) (Homo sapiens (Human))
- experiment notes: SOS1-KRas (G12C) FRET Assay
- Assay type: binding
- setup conditions: inhibition of SOS1:KRAS interaction; 0.5 nM His10-SOS1 (res. 564-1049), 2.5 nM GST-KRAS (res. 1-169, G12C); 2 hrs at RT
measurement kind: IC50 (nM)

C[C@@H](NC(=O)c1cc(N2CCC2)c(F)cc1N[C@H]1CN2CCC1CC2)c1cccc(C(F)F)c1F : 205
Cc1c(C#N)cccc1[C@@H](C)NC(=O)c1cc(N2CCOCC2)c(F)cc1N[C@H]1CN2CCC1CC2 : 69.2
C[C@@H](NC(=O)c1cc(N2CCOCC2)c(F)cc1N[C@@H]1CN2CCC1CC2)c1cccc(C(C)(F)F)c1F : 49.5
Cc1c(C#N)cccc1[C@@H](C)NC(=O)c1cc(N2CCOCC2)c(F)cc1N[C@@H]1CN2CCC1CC2 : 210

P: C[C@@H](NC(=O)c1cc(-c2ccncn2)c(F)cc1NC1CCN(C)CC1)c1cccc(C(F)F)c1F
Q: Cc1c([C@@H](C)NC(=O)c2cc(N3CC4(C3)CS(=O)(=O)C4)c(F)cc2NC2CCN(C)CC2)cccc1C(F)(F)F
// returns P or Q , whichever has the lower IC50 Refer to your chosen entry by its label in the reply.
P
